# Experimental system: Adenosylhomocysteinase (Rattus norvegicus, UniProt P10760)
# Sequence (P10760 whole entry): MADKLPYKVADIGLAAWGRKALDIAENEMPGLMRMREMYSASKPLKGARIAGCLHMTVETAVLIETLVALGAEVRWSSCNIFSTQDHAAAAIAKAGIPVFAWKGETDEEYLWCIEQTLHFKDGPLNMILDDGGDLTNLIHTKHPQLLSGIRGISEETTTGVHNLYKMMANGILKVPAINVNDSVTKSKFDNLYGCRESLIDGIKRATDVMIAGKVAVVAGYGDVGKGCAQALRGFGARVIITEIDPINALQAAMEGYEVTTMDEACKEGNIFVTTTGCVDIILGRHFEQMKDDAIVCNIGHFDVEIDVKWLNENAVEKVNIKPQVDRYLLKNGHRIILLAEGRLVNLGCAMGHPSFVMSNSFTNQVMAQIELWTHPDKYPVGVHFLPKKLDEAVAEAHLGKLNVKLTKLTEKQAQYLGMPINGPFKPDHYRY
Quantity name: pKi
Note: pKi values are expressed as the negative base-10 logarithm of concentration in M.

In: Find the measured pKi of Nc1ncnc2c1ncn2[C@@H]1C=C(CO)[C@@H](O)[C@H]1O [NEOPLANOCIN A] and report it.
Out: 8.08
